- Test system: RPMI-8226
- EXPERIMENTAL PROTOCOL: Growth inhibitory activity against Leukemia RPMI-8226 cell line was determined
- Format: functional
- CONDITION SET: Homo sapiens
REPORTED METRIC: log10(GI50) (log10 of the value in nM)

>>> print(df.to_string())
                               input_smiles  reported_metric  recorded_result
0  O=C(Oc1ccc(Cl)cc1Cl)c1ccccc1Nc1ccnc(C(F)(F)F)c1      log10(GI50)             3.38
1  CCOC(=O)CNC(=O)c1ccccc1Nc1ccnc(C(F)(F)F)c1      log10(GI50)             4.04
2  O=C(Oc1ccccc1Cl)c1ccccc1Nc1ccnc(C(F)(F)F)c1      log10(GI50)             2.38
3  COc1cccc(OC(=O)c2ccccc2Nc2ccnc(C(F)(F)F)c2)c1      log10(GI50)             3.00
4  O=C(Oc1ccc(Cl)cc1)c1ccccc1Nc1ccnc(C(F)(F)F)c1      log10(GI50)             3.46
5  O=C(Oc1cccc(Cl)c1)c1ccccc1Nc1ccnc(C(F)(F)F)c1      log10(GI50)             3.26
6  O=C(Oc1cccnc1)c1ccccc1Nc1ccnc(C(F)(F)F)c1      log10(GI50)             1.70

* * *

- Test system: K562
- EXPERIMENTAL PROTOCOL: Growth inhibitory activity against Leukemia K-562 cell line was determined
- Assay type: functional
- CONDITION SET: Homo sapiens
Listed compounds paired with reported log10(GI50)
REPORTED METRIC: log10(GI50) (log10 of the value in nM)

In [3]: df
Out[3]:
                               input_smiles  reported_metric  recorded_result
0  O=C(Oc1ccc(Cl)cc1Cl)c1ccccc1Nc1ccnc(C(F)(F)F)c1      log10(GI50)             3.48
1  O=C(Oc1cccnc1)c1ccccc1Nc1ccnc(C(F)(F)F)c1      log10(GI50)             1.60
2  O=C(Oc1cccc(Cl)c1)c1ccccc1Nc1ccnc(C(F)(F)F)c1      log10(GI50)             3.51
3  O=C(Oc1c(Cl)cc(Cl)cc1Cl)c1ccccc1Nc1ccnc(C(F)(F)F)c1      log10(GI50)             3.38
4  COc1cccc(OC(=O)c2ccccc2Nc2ccnc(C(F)(F)F)c2)c1      log10(GI50)             2.87
5  O=C(Oc1ccc(Cl)cc1)c1ccccc1Nc1ccnc(C(F)(F)F)c1      log10(GI50)             3.56
6  CCOC(=O)CNC(=O)c1ccccc1Nc1ccnc(C(F)(F)F)c1      log10(GI50)             4.26
7  O=C(Oc1ccccc1Cl)c1ccccc1Nc1ccnc(C(F)(F)F)c1      log10(GI50)             1.70

* * *

- System: A498
- EXPERIMENTAL PROTOCOL: Growth inhibitory activity against Renal cancer A498 cell line was determined
- Format: functional
- CONDITION SET: Homo sapiens
Listed compounds paired with reported GI50
REPORTED METRIC: GI50 (µM)

>>> print(df.to_string())
                               input_smiles  assay_system  endpoint_unit  recorded_result
0  O=C(Oc1cccnc1)c1ccccc1Nc1ccnc(C(F)(F)F)c1          A498             µM             0.52
1  O=C(Oc1ccccc1Cl)c1ccccc1Nc1ccnc(C(F)(F)F)c1          A498             µM              3.9
2  CCOC(=O)CNC(=O)c1ccccc1Nc1ccnc(C(F)(F)F)c1          A498             µM               64
3  O=C(Oc1ccc(Cl)cc1Cl)c1ccccc1Nc1ccnc(C(F)(F)F)c1          A498             µM               21
